Molecular target: T1, 4H2667-bA
T1 chain: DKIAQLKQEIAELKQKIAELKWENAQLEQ
Assay: two-hybrid library CCNG1;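 also: natural log of median RNA to DNA barcode read ratio; higher means stronger binding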
This section presents binders with their documented interaction score values.
Keep the answer to the number alone.

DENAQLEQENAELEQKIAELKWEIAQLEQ [4H1193-bA]	-0.522
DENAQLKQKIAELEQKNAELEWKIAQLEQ [4H1845-bA]	0.247
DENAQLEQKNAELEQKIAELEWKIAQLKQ [4H1446-bA]	0.0853

Reported interaction score for DKIAQLEQKNAELEQEIAELKWEIAQLKQ [4H2442-bA] : what is it? -0.365

Given the binder DENAQLEQKIAELKQENAELKWEIAQLEQ [4H1369-bA] , what is its reported interaction score? -0.912

May I ask what interaction score has been recorded for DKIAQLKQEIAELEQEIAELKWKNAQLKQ [4H2576-bA] ? 0.89

What does the record list as interaction score for DKIAQLKQEIAELEQKNAELKWEIAQLKQ [4H2618-bA] ? 0.0194

Give its interaction score value. Item: DENAQLEQKIAELEQKIAELKWKNAQLKQ [4H1328-bA] 0.432
